biological target: GST-RIPK2 fusion protein (human RIPK2 amino acids 1-310) (Homo sapiens (Human), UniProt O43353); experiment: RIPK2 binding competition assay (TR-FRET, Tracer 199); settings: read-out: RIPK2 IC50; RIPK2 binding competition assay
Sequence (O43353 1-310): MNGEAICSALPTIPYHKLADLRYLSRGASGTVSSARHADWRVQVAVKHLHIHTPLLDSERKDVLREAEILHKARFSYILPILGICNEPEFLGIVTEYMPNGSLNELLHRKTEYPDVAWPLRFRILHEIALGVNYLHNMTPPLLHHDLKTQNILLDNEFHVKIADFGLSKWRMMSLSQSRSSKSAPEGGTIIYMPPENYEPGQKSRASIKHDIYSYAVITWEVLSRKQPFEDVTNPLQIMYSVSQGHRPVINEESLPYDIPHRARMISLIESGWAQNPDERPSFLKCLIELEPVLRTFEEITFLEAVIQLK
pIC50: −log10 of the molar value.
I'd appreciate it if you could supply pIC50 values for the items below.

Task: Supply recorded pIC50 for CCCS(=O)(=O)Nc1nc(-c2cnc3cc(OC)c(S(=O)(=O)C(C)(C)C)cn23)ccc1OC(F)(F)F here.
Output: < 7.70

Task: Supply recorded pIC50 for COc1cc2ncc(-c3ccc(N)cc3)n2cc1S(=O)(=O)C(C)(C)C here.
Output: < 7.70

Task: Supply recorded pIC50 for COc1cc2ncc(-c3cc(F)nc(NCC4CCC(=O)NC4)c3)n2cc1S(=O)(=O)C(C)(C)C (stereo not shown) here.
Output: > 9.00

Task: Supply recorded pIC50 for COc1cc2ncc(-c3cc(F)nc(NCCCN)c3)n2cc1S(=O)(=O)C(C)(C)C here.
Output: > 9.00

----------
I'd appreciate it if you could supply IC50 values for the items below.
tested on: NF-κB pathway (SEAP) in THP1-Dual cells; experiment: THP-1 Dual cell SEAP assay (L18-MDP stimulated); assay type: cell-based; details: Homo sapiens, THP1-Dual, read-out: NFkB THP1 IC50

Task: Tell me its IC50 on NF-κB pathway (SEAP) in THP1-Dual cells: COc1cc2ncc(-c3cc(F)c(OC)c(C4CC4)c3)n2cc1S(=O)(=O)C(C)(C)C
Output: 50 to 250 nM

Task: Tell me its IC50 on NF-κB pathway (SEAP) in THP1-Dual cells: COc1cc2ncc(-c3cnc(OC)c(N)c3)n2cc1S(=O)(=O)C(C)(C)C
Output: > 1000 nM

Task: Tell me its IC50 on NF-κB pathway (SEAP) in THP1-Dual cells: COc1cc2ncc(-c3ccc(N)cc3)n2cc1S(=O)(=O)C(C)(C)C
Output: > 1000 nM

Task: Tell me its IC50 on NF-κB pathway (SEAP) in THP1-Dual cells: COc1cc2ncc(-c3ccc(N(C)C)nc3)n2cc1S(=O)(=O)C(C)(C)C
Output: > 1000 nM

Task: Tell me its IC50 on NF-κB pathway (SEAP) in THP1-Dual cells: COc1cc2ncc(-c3ccc(OC)c(Cl)n3)n2cc1S(=O)(=O)C(C)(C)C
Output: > 1000 nM

Task: Tell me its IC50 on NF-κB pathway (SEAP) in THP1-Dual cells: CCCS(=O)(=O)Nc1cc(COC)cc(-c2cnc3cc(OC)c(S(=O)(=O)C(C)(C)C)cn23)c1
Output: 250 to 1000 nM

Task: Tell me its IC50 on NF-κB pathway (SEAP) in THP1-Dual cells: CC(C)(C)S(=O)(=O)c1ccn2ncc(-c3ccc(N)nc3F)c2c1
Output: > 1000 nM

Task: Tell me its IC50 on NF-κB pathway (SEAP) in THP1-Dual cells: COc1cc(-c2cnc3cc(OC)c(S(=O)(=O)C(C)(C)C)cn23)cc(F)n1
Output: 250 to 1000 nM

Task: Tell me its IC50 on NF-κB pathway (SEAP) in THP1-Dual cells: COc1cn2ncc(-c3cnc(N)c(F)c3)c2cc1S(=O)(=O)C(C)(C)C
Output: 250 to 1000 nM

Task: Tell me its IC50 on NF-κB pathway (SEAP) in THP1-Dual cells: COc1cc2ncc(-c3cccc(NS(C)(=O)=O)c3)n2cc1S(=O)(=O)C(C)(C)C
Output: > 1000 nM

Task: Tell me its IC50 on NF-κB pathway (SEAP) in THP1-Dual cells: COc1cc2ncc(-c3cc(F)nc(NCc4ccc(=O)[nH]c4)c3)n2cc1S(=O)(=O)C(C)(C)C
Output: 50 to 250 nM

Task: Tell me its IC50 on NF-κB pathway (SEAP) in THP1-Dual cells: CCCS(=O)(=O)Nc1cc(-c2cnc3cc(OCC)c(S(=O)(=O)C(C)C)cn23)ccc1OC
Output: 250 to 1000 nM

Task: Tell me its IC50 on NF-κB pathway (SEAP) in THP1-Dual cells: COc1cc2ncc(-c3cccc(CS(C)(=O)=O)c3)n2cc1S(=O)(=O)C(C)(C)C
Output: > 1000 nM

Task: Tell me its IC50 on NF-κB pathway (SEAP) in THP1-Dual cells: COc1cc2ncc(-c3cc(F)nc(NCC4CCN(C)C(=O)C4)c3)n2cc1S(=O)(=O)C(C)(C)C (centres unmarked)
Output: < 50 nM

Task: Tell me its IC50 on NF-κB pathway (SEAP) in THP1-Dual cells: COc1cc2ncc(-c3cc(F)nc(NCCSC)c3)n2cc1S(=O)(=O)C(C)(C)C
Output: < 50 nM

Task: Tell me its IC50 on NF-κB pathway (SEAP) in THP1-Dual cells: COc1cc2ncc(-c3cc(F)c(OC)c(N)c3F)n2cc1S(=O)(=O)C(C)(C)C
Output: 250 to 1000 nM

Task: Tell me its IC50 on NF-κB pathway (SEAP) in THP1-Dual cells: COc1cc2ncc(-c3cc(F)c(C#N)c(F)c3)n2cc1S(=O)(=O)C(C)(C)C
Output: > 1000 nM

----------
biological target: GST-RIPK2 fusion protein (human RIPK2 amino acids 1-310) (Homo sapiens (Human), UniProt O43353); assay: RIPK2 binding competition assay (TR-FRET, Tracer 199); conditions: read-out: RIPK2 IC50; RIPK2 binding competition assay
pIC50: −log10 of the molar value.
parameter: pIC50

Task: Supply recorded pIC50 for COc1cc2ncc(-c3ccc(N)nc3C#N)n2cc1S(=O)(=O)C(C)(C)C here.
Output: < 7.70

Task: Supply recorded pIC50 for COc1cc(N)cc(-c2cnn3ccc(S(=O)(=O)C(C)(C)C)cc23)c1 here.
Output: < 7.70

Task: Supply recorded pIC50 for COc1cc2ncc(-c3cnc(N)c(C4CC4)c3)n2cc1S(=O)(=O)C(C)(C)C here.
Output: < 7.70

Task: Supply recorded pIC50 for CC(C)(C)S(=O)(=O)c1ccn2ncc(-c3ccc(NCCCO)nc3F)c2c1 here.
Output: < 7.70

----------
target: GST-RIPK2 fusion protein (human RIPK2 amino acids 1-310) (Homo sapiens (Human), UniProt O43353); experiment: RIPK2 binding competition assay (TR-FRET, Tracer 199); conditions: read-out: RIPK2 IC50; RIPK2 binding competition assay
pIC50: −log10 of the molar value.
parameter: pIC50

Task: Supply recorded pIC50 for COc1cc2ncc(-c3ccc(N)c(F)c3F)n2cc1S(=O)(=O)C(C)(C)C [Example 83] here.
Output: < 7.70

Task: Supply recorded pIC50 for CNc1ncc(-c2cnc3cc(OC)c(S(=O)(=O)C(C)(C)C)cn23)cc1F [Example 94] here.
Output: < 7.70

Task: Supply recorded pIC50 for CCCNc1cc(-c2cnc3cc(OC)c(S(=O)(=O)C(C)(C)C)cn23)cc(F)n1 [Example 181] here.
Output: > 9.00

Task: Supply recorded pIC50 for Nc1nc(F)c(-c2cnc3ccccn23)cc1F [Example 121] here.
Output: < 7.70

Task: Supply recorded pIC50 for COc1cc2ncc(-c3cc(F)c(OC)c(C#N)c3)n2cc1S(=O)(=O)C(C)(C)C [Example 56] here.
Output: < 7.70

----------
tested on: NF-κB pathway (SEAP) in THP1-Dual cells; assay: THP-1 Dual cell SEAP assay (L18-MDP stimulated); type: cell-based; conditions: Homo sapiens, THP1-Dual, read-out: NFkB THP1 IC50
pIC50: −log10 of the molar value.
parameter: pIC50

Task: Supply recorded pIC50 for CCCS(=O)(=O)Nc1c(F)c(-c2cnc3cc(OC)c(S(=O)(=O)C(C)(C)C)cn23)cc(F)c1OC here.
Output: 6.00 to 6.60

Task: Supply recorded pIC50 for CCOc1ncc(-c2cnc3cc(OC)c(S(=O)(=O)C(C)(C)C)cn23)s1 here.
Output: < 6.00

Task: Supply recorded pIC50 for CC(C)(C)S(=O)(=O)c1ccn2ncc(-c3ccc(N)nc3)c2c1 here.
Output: < 6.00

Task: Supply recorded pIC50 for COc1cc2ncc(-c3cc(F)nc(N[C@H]4CCCC[C@@H]4O)c3)n2cc1S(=O)(=O)C(C)(C)C (single isomer, unassigned) here.
Output: 6.00 to 6.60

Task: Supply recorded pIC50 for CCCS(=O)(=O)Nc1cc(OC(F)F)cc(-c2cnc3cc(OC)c(S(=O)(=O)C(C)(C)C)cn23)c1 here.
Output: 6.60 to 7.30

Task: Supply recorded pIC50 for COc1cc2ncc(-c3cc(F)c(N)c(N)c3F)n2cc1S(=O)(=O)C(C)(C)C here.
Output: 6.00 to 6.60

Task: Supply recorded pIC50 for COc1ccn2c(-c3cc(F)nc(F)c3)cnc2c1 here.
Output: < 6.00

Task: Supply recorded pIC50 for COc1cc2ncc(-c3cc(F)c(OC)c(N4CC[C@@H](O)C4=O)c3)n2cc1S(=O)(=O)C(C)(C)C here.
Output: < 6.00

Task: Supply recorded pIC50 for COc1cc2ncc(-c3cc(F)nc(NCC(F)(F)CO)c3)n2cc1S(=O)(=O)C(C)(C)C here.
Output: > 7.30

Task: Supply recorded pIC50 for CCCS(=O)(=O)Nc1cc(-c2cnc3cc(OC)c(S(=O)(=O)C(C)(C)C)cn23)cc(C)c1OC here.
Output: 6.60 to 7.30

Task: Supply recorded pIC50 for COc1cc2ncc(-c3cc(F)nc(NCCO)c3)n2cc1S(=O)(=O)C(C)(C)C here.
Output: > 7.30

Task: Supply recorded pIC50 for COc1cc(-c2cnc3cc(OC)c(S(=O)(=O)C(C)(C)C)cn23)cc(NS(C)(=O)=O)n1 here.
Output: 6.00 to 6.60

Task: Supply recorded pIC50 for COc1cc2ncc(-c3ccc(N)nc3F)n2cc1S(=O)(=O)C(C)(C)C here.
Output: < 6.00

Task: Supply recorded pIC50 for CCCS(=O)(=O)Nc1cc(-c2cnc3cc(OC)c(S(=O)(=O)C(C)(C)C)cn23)ccc1OC(F)(F)F here.
Output: 6.00 to 6.60

Task: Supply recorded pIC50 for COc1cc2ncc(-c3cc(F)nc(N[C@H](C)CCO)c3)n2cc1S(=O)(=O)C(C)(C)C here.
Output: 6.00 to 6.60

Task: Supply recorded pIC50 for COc1cc2ncc(-c3cc(NCCCO)nc(C(F)(F)F)c3)n2cc1S(=O)(=O)C(C)(C)C here.
Output: 6.00 to 6.60
